measured-target: Urotensin-2 receptor (Homo sapiens) (UniProt Q9UKP6)
Sequence (whole entry): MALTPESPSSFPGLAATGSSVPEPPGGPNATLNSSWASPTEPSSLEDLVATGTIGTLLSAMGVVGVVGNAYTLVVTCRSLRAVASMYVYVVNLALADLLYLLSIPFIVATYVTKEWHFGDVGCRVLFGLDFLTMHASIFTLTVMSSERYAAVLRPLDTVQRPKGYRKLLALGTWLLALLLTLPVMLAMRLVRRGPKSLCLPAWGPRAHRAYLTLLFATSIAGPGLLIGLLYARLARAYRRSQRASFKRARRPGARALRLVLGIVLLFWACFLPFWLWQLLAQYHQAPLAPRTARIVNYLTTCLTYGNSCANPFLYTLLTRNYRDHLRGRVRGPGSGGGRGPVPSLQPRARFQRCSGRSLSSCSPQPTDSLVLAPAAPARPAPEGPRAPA
test-protocol: Allosteric modulation of human urotensin-2 receptor expressed in HEK293 cells assessed as change in human urotensin-2-induced G12 activation by measuring urotensin-2 Emax at 10^-5 M preincubated for 30 mins followed by urotensin-2 addition by BRET assay (reference value: 100 +/- 6%)
Format: cell-based
measured-metric: Emax (%)

NCCCCN1N=C(/C=C/c2ccc(O)cc2)c2ccccc2N(Cc2ccc(-c3ccccc3)cc2)C1=O; 103
NCCCN1N=C(CCc2nc3ccccc3s2)c2ccccc2N(Cc2ccc3ccccc3c2)C1=O; 96
NCCCCN1N=C(CCc2ccc(O)cc2)c2ccccc2N(Cc2ccc3ccccc3c2)C1=O; 98
COc1ccc(/C=C/C2=NN(CCCCN)C(=O)N(Cc3ccc(-c4ccccc4)cc3)c3ccccc32)cc1; 96

---

measured-target: Urotensin-2 receptor (Rattus norvegicus)
test-protocol: Allosteric modulation of urotensin-2 receptor in Sprague-Dawley rat thoracic aorta assessed as change in human urotensin-2-mediated aortic ring contraction by measuring urotensin-2 Emax at 10^-5M preincubated for 15 mins followed by urotensin-2 addition relative to KCl (reference value: 103 +/- 2%)
measured-metric: Emax (%)

Some compounds with recorded Emax:
NCCCCN1N=C(CCc2ccc(O)cc2)c2ccccc2N(Cc2ccc(-c3ccccc3)cc2)C1=O; 118
NCCCN1N=C(CCc2nc3ccccc3s2)c2ccccc2N(Cc2cccc3ccccc23)C1=O; 100
NCCCCN1N=C(/C=C/c2ccc(O)cc2)c2ccccc2N(Cc2ccc3ccccc3c2)C1=O; 55
NCCCN1N=C(CCc2nc3ccccc3s2)c2ccccc2N(Cc2ccc(-c3ccccc3)cc2)C1=O; 75
NCCCCN1N=C(CCc2nc3ccccc3s2)c2ccccc2N(Cc2ccc(-c3ccccc3)cc2)C1=O; 68
COc1ccc(CCC2=NN(CCCCN)C(=O)N(Cc3ccc4ccccc4c3)c3ccccc32)cc1; 55

a = NCCCCN1N=C(CCc2nc3ccccc3s2)c2ccccc2N(Cc2cccc3ccccc23)C1=O
b = NCCCCN1N=C(/C=C/c2ccc(O)cc2)c2ccccc2N(Cc2ccc(-c3ccccc3)cc2)C1=O
Prompt line: Parameter metric = Emax. Return the lower-valued option from a and b . // caller expects the label of the chosen entry
Response line: b

1 = COc1ccc(/C=C/C2=NN(CCCCN)C(=O)N(Cc3ccc(-c4ccccc4)cc3)c3ccccc32)cc1
2 = NCCCN1N=C(CCc2nc3ccccc3s2)c2ccccc2N(Cc2ccc3ccccc3c2)C1=O
Prompt line: Field: entry with larger Emax (options 1 / 2 ). Refer to your chosen item by its label in the answer.
Response line: 1
(1: 83%, 2: 45%)

A = CNCCCCN1N=C(CCc2nc3ccccc3s2)c2ccccc2N(Cc2ccc3ccccc3c2)C1=O
B = COc1ccc(CCC2=NN(CCCN)C(=O)N(Cc3ccc(-c4ccccc4)cc3)c3ccccc32)cc1
Prompt line: Which of the two items, A and B , has the greater recorded Emax? # respond with the chosen item's label
Response line: A
(A: 87%, B: 59%)

1 = CNCCCCN1N=C(CCc2nc3ccccc3s2)c2ccccc2N(Cc2ccc(-c3ccccc3)cc2)C1=O
2 = NCCCN1N=C(/C=C/c2ccc(O)cc2)c2ccccc2N(Cc2ccc3ccccc3c2)C1=O
Prompt line: Hi there! Just curious which has the higher Emax between 1 and 2 . Return value: the label identifying the chosen record.
Response line: 1

A = NCCCCN1N=C(CCc2ccc(O)cc2)c2ccccc2N(Cc2ccc3ccccc3c2)C1=O
B = NCCCN1N=C(/C=C/c2ccc(O)cc2)c2ccccc2N(Cc2ccc(-c3ccccc3)cc2)C1=O
Prompt line: // which entry has the larger Emax value, A or B ? Identify your pick by its label.
Response line: A
(A: 98%, B: 51%)

P = NCCCN1N=C(CCc2ccc(O)cc2)c2ccccc2N(Cc2ccc(-c3ccccc3)cc2)C1=O
Q = COc1ccc(CCC2=NN(CCCN)C(=O)N(Cc3ccc4ccccc4c3)c3ccccc32)cc1
Prompt line: Larger number for Emax: P , or Q ? Write down the label of the entry you select.
Response line: P
(P: 95%, Q: 55%)

---

measured-target: Urotensin-2 receptor (Homo sapiens) (UniProt Q9UKP6)
test-protocol: Allosteric modulation of human urotensin-2 receptor expressed in HEK293 cells assessed as change in URP-induced Gq activation by measuring URP Emax at 10^-5 M preincubated for 30 mins followed by URP addition by BRET assay (reference value: 100 +/- 3%)
Assay type: cell-based
measured-metric: Emax (%)

NCCCCN1N=C(CCc2ccc(O)cc2)c2ccccc2N(Cc2ccc3ccccc3c2)C1=O; 78
NCCCN1N=C(CCc2nc3ccccc3s2)c2ccccc2N(Cc2ccc3ccccc3c2)C1=O; 82
NCCCCN1N=C(/C=C/c2ccc(O)cc2)c2ccccc2N(Cc2ccc(-c3ccccc3)cc2)C1=O; 92
COc1ccc(/C=C/C2=NN(CCCCN)C(=O)N(Cc3ccc(-c4ccccc4)cc3)c3ccccc32)cc1; 83

---

measured-target: Urotensin-2 receptor (Homo sapiens)
test-protocol: Allosteric modulation of human urotensin-2 receptor expressed in HEK293 cells assessed as change in human urotensin-2-induced Gq activation by measuring urotensin-2 Emax at 10^-5 M preincubated for 30 mins followed by urotensin-2 addition by BRET assay (reference value: 100 +/- 3%)
Format: cell-based
measured-metric: Emax (%)

NCCCCN1N=C(/C=C/c2ccc(O)cc2)c2ccccc2N(Cc2ccc(-c3ccccc3)cc2)C1=O; 92
COc1ccc(/C=C/C2=NN(CCCCN)C(=O)N(Cc3ccc(-c4ccccc4)cc3)c3ccccc32)cc1; 80
NCCCN1N=C(CCc2nc3ccccc3s2)c2ccccc2N(Cc2ccc3ccccc3c2)C1=O; 87
NCCCCN1N=C(CCc2ccc(O)cc2)c2ccccc2N(Cc2ccc3ccccc3c2)C1=O; 83

---

measured-target: Urotensin-2 receptor (Homo sapiens) (UniProt Q9UKP6)
test-protocol: Allosteric modulation of human urotensin-2 receptor expressed in HEK293 cells assessed as change in URP-induced G12 activation by measuring URP Emax at 10^-5 M preincubated for 30 mins followed by URP addition by BRET assay (reference value: 100 +/- 7%)
Type: cell-based
measured-metric: Emax (%)

Previously resolved entries follow.
NCCCCN1N=C(CCc2ccc(O)cc2)c2ccccc2N(Cc2ccc3ccccc3c2)C1=O; 90
NCCCN1N=C(CCc2nc3ccccc3s2)c2ccccc2N(Cc2ccc3ccccc3c2)C1=O; 115

P = COc1ccc(/C=C/C2=NN(CCCCN)C(=O)N(Cc3ccc(-c4ccccc4)cc3)c3ccccc32)cc1
Q = NCCCCN1N=C(/C=C/c2ccc(O)cc2)c2ccccc2N(Cc2ccc(-c3ccccc3)cc2)C1=O
Prompt line: Look at P and Q . Which one has the lower recorded Emax number? Bench note: the answer is the label of the chosen record.
Response line: Q
(Q: 72%, P: 106%)

---

measured-target: Urotensin-2 receptor (Rattus norvegicus)
Sequence (whole entry): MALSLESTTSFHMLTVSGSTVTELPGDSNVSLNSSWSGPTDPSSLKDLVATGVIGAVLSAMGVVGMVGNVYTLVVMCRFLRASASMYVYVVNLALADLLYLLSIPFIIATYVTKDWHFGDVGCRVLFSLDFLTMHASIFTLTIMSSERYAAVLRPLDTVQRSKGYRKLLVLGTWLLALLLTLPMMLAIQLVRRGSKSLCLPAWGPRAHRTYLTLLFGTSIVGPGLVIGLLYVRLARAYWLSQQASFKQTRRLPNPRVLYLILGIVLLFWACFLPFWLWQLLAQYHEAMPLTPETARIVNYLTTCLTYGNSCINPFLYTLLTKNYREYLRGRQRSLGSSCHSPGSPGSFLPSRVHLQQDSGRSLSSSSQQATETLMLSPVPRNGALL
test-protocol: Allosteric modulation of urotensin-2 receptor in Sprague-Dawley rat thoracic aorta assessed as change in URP-mediated aortic ring contraction by measuring URP Emax at 10^-5M preincubated for 15 mins followed by URP addition relative to KCl (reference value: 118 +/- 2%)
measured-metric: Emax (%)

Past entries and their recorded results:
CNCCCCN1N=C(CCc2nc3ccccc3s2)c2ccccc2N(Cc2ccc3ccccc3c2)C1=O; 114
NCCCCN1N=C(CCc2ccc(O)cc2)c2ccccc2N(Cc2ccc(-c3ccccc3)cc2)C1=O; 86
NCCCN1N=C(CCc2ccc(O)cc2)c2ccccc2N(Cc2ccc3ccccc3c2)C1=O; 96
NCCCN1N=C(/C=C/c2ccc(O)cc2)c2ccccc2N(Cc2ccc(-c3ccccc3)cc2)C1=O; 115

A = NCCCN1N=C(CCc2ccc(O)cc2)c2ccccc2N(Cc2ccc(-c3ccccc3)cc2)C1=O
B = COc1ccc(CCC2=NN(CCCN)C(=O)N(Cc3ccc4ccccc4c3)c3ccccc32)cc1
Prompt line: Just tell me: smaller Emax value, A or B ? Answer by quoting the chosen item's label.
Response line: B
(B: 41%, A: 90%)

Provenance of the data: ChEMBL document CHEMBL4052818
